The origin of these recorded values is patent US11459315B2.

STUDY SYSTEM: PRC2 containing wt EZH2 (Homo sapiens (Human), UniProt Q15910)
Sequence (Q15910 whole entry): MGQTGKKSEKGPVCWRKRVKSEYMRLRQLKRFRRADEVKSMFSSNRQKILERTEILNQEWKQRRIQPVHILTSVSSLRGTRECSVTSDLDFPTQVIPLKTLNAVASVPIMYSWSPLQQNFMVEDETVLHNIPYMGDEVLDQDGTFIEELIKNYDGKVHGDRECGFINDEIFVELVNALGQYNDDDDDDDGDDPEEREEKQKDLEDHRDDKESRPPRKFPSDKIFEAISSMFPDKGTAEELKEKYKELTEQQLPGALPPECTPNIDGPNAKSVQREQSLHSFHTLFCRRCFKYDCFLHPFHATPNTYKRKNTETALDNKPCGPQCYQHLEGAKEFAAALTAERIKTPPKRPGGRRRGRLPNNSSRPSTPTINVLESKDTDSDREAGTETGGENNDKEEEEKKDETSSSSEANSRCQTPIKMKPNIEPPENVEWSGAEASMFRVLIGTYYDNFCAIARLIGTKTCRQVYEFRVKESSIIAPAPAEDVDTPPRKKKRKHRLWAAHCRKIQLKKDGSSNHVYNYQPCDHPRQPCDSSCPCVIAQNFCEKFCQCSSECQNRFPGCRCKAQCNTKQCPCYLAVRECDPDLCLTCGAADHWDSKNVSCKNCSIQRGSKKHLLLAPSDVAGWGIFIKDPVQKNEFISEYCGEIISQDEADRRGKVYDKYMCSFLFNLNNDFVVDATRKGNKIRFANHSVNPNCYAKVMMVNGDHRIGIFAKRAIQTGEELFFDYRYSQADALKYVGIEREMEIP
Sequence (O75530 whole entry partner): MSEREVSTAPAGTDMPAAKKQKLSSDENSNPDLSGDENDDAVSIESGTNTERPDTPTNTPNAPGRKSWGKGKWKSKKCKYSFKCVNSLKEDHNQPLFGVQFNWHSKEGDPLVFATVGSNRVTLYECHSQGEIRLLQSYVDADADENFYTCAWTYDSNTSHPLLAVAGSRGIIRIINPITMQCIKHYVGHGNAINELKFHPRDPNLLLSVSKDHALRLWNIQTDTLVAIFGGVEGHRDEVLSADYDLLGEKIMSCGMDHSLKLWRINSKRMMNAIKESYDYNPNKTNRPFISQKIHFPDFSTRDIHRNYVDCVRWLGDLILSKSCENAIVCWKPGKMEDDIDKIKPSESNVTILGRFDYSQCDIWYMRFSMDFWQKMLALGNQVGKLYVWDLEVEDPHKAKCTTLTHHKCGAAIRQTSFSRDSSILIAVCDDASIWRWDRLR
Sequence (Q15022 whole entry partner): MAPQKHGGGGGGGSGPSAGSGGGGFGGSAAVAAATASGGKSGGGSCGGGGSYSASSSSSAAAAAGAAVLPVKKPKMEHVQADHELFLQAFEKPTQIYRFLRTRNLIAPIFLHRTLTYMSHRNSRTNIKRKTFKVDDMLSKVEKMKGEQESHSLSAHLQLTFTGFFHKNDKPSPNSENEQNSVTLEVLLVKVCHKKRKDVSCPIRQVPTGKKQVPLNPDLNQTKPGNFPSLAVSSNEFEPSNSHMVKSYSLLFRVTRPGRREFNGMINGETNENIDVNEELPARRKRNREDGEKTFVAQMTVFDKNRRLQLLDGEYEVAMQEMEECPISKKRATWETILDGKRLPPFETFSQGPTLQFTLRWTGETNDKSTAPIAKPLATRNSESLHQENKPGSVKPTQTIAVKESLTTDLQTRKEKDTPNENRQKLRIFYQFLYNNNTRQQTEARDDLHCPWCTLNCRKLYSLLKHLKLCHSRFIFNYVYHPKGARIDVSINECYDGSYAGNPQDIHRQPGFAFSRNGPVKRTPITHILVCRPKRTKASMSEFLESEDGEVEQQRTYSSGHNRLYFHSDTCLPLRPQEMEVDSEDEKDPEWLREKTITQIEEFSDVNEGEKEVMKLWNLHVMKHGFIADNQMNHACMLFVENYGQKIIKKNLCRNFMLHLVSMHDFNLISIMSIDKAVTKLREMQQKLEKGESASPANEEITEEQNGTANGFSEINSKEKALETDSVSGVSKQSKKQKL
Sequence (Q09028 whole entry partner): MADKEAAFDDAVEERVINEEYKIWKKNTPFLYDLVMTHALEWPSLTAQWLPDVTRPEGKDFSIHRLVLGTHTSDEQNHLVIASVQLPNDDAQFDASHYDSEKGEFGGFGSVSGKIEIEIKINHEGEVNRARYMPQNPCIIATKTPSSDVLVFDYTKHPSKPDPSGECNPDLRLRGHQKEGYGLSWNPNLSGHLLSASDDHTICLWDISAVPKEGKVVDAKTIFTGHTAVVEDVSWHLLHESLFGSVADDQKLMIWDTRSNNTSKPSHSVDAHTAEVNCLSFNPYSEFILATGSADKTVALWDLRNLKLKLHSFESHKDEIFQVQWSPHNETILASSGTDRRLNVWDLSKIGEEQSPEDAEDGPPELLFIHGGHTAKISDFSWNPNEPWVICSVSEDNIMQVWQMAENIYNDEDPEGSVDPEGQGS
Sequence (Q6ZN18 whole entry partner): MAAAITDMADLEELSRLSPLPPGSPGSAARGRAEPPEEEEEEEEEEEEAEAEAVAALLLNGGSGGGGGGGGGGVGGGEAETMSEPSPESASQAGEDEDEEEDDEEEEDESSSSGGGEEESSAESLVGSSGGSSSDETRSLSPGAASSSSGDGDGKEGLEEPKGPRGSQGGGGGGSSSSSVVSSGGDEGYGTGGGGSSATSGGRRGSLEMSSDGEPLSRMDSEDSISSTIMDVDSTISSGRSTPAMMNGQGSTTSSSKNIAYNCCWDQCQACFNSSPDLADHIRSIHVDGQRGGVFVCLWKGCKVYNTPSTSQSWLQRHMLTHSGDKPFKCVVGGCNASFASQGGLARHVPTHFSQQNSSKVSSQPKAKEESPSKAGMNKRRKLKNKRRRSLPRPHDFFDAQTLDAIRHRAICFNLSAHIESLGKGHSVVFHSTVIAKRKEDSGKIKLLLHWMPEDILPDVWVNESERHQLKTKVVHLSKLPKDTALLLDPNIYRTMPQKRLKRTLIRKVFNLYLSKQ
TEST METHOD NOTES: EZH2 biochemical assay (IC50), 3H-SAM incorporation into biotinylated H3 peptide
ASSAY CONTEXT: read-out: EZH2 (IC50); 30 pM PRC2 containing wt EZH2; 3-5 h pre-incubation
RESULT TYPE: IC50

{"COMPOUND": "CSc1cc(C)[nH]c(=O)c1CNC(=O)c1c(C)n([C@H](C)C2CCC(O)CC2)c2ccccc12 (single isomer, unassigned) [19 (isomer 2)]", "IC50": "< 0.5 nM"}
{"COMPOUND": "CSc1cc(C)[nH]c(=O)c1CNC(=O)c1c(C)n([C@H](C)C2CCC(OC(F)F)CC2)c2ccccc12 (single isomer, unassigned) [60 (isomer 2)]", "IC50": "< 0.5 nM"}

Below: the item to evaluate.
Data request: Report IC50 for CSc1cc(C)[nH]c(=O)c1CNC(=O)c1c(C)n([C@H](C)C2OCC(N3CCC3(C)C)CO2)c2ccccc12 (single isomer, unassigned) [15 (isomer 2)] please.
Data returned: < 0.5 nM

* * *

STUDY SYSTEM: PRC2 containing wt EZH2 (Homo sapiens (Human))
TEST METHOD NOTES: EZH2 biochemical assay (IC50), 3H-SAM incorporation into biotinylated H3 peptide
ASSAY CONTEXT: 30 pM PRC2 containing wt EZH2; 3-5 h pre-incubation; read-out: EZH2 (IC50)
RESULT TYPE: IC50

{"MOLECULE": "CSc1cc(C)[nH]c(=O)c1CNC(=O)c1c(C)n([C@H](C)C2OCC(NC3(C)COC3)CO2)c2ccccc12 (single isomer, unassigned) [6 (isomer 1)]", "IC50": "< 0.5 nM"}

Data request: Report IC50 for CCOC1CN(C2CCC([C@@H](C)n3c(C)c(C(=O)NCc4c(SC)cc(C)[nH]c4=O)c4cccnc43)CC2)C1 (single isomer, unassigned) [91 (isomer 1)] please.
Data returned: < 0.5 nM

Data request: Report IC50 for COCCN(C)C1COC([C@@H](C)n2c(C)c(C(=O)NCc3c(SC)cc(C)[nH]c3=O)c3ccccc32)OC1 (single isomer, unassigned) [16 (isomer 2)] please.
Data returned: > 5 nM

* * *

compounds and their reported IC50
STUDY SYSTEM: PRC2 containing wt EZH2 (Homo sapiens (Human), UniProt Q15910)
TEST METHOD NOTES: EZH2 biochemical assay (IC50), 3H-SAM incorporation into biotinylated H3 peptide
ASSAY CONTEXT: 30 pM PRC2 containing wt EZH2; 3-5 h pre-incubation; read-out: EZH2 (IC50)

{"COMPOUND": "CSc1cc(C)[nH]c(=O)c1CNC(=O)c1c(C)n([C@H](C)C2CCC(N(C)C3(C)COC3)CC2)c2ccccc12 (single isomer, unassigned) [3 (isomer 2)]", "IC50": "< 0.5 nM"}
{"COMPOUND": "CSc1cc(C)[nH]c(=O)c1CNC(=O)c1c(C)n([C@H](C)C2CCC(N3CC(OC4CC4)C3)CC2)c2ncc(Cl)cc12 (stereo partly drawn) [Example 124]", "IC50": "< 0.5 nM"}
{"COMPOUND": "CSc1cc(C)[nH]c(=O)c1CNC(=O)c1c(C)n([C@H](C)C2CCC(NC3(CF)COC3)CC2)c2ccccc12 (single isomer, unassigned) [154 (isomer 1)]", "IC50": "< 0.5 nM"}
{"COMPOUND": "COC1CN(C2CCC([C@@H](C)n3c(C)c(C(=O)NCc4c(SC)cc(C)[nH]c4=O)c4cc(F)cnc43)CC2)C1 (single isomer, unassigned) [94 (isomer 2)]", "IC50": "0.5 to 5 nM"}
{"COMPOUND": "CSc1cc(C)[nH]c(=O)c1CNC(=O)c1c(C)n([C@H](C)C2CCC(NC3(CO)COC3)CC2)c2cc(F)ccc12 (single isomer, unassigned) [159 (isomer 2)]", "IC50": "< 0.5 nM"}
{"COMPOUND": "CSc1cc(C)[nH]c(=O)c1CNC(=O)c1c(C)n([C@H](C)C2CCC(OC(=O)C(C)C)CC2)c2ccccc12 (single isomer, unassigned) [144 (isomer 1)]", "IC50": "< 0.5 nM"}
{"COMPOUND": "CSc1cc(C)[nH]c(=O)c1CNC(=O)c1c(C)n([C@H](C)C2CCC(N3CC(OC4CC4)C3)CC2)c2ncncc12 (single isomer, unassigned) [102 (isomer 1)]", "IC50": "< 0.5 nM"}
{"COMPOUND": "CSc1cc(C)[nH]c(=O)c1CNC(=O)c1c(C)n([C@H](C)C2CCC(NC3(CF)COC3)CC2)c2ncccc12 (single isomer, unassigned) [155 (isomer 2)]", "IC50": "0.5 to 5 nM"}
{"COMPOUND": "Cc1cc(SC(F)F)c(CNC(=O)c2c(C)n([C@H](C)C3CCN(CC(F)(F)F)CC3)c3ccccc23)c(=O)[nH]1 [Example 105]", "IC50": "0.5 to 5 nM"}
{"COMPOUND": "CSc1cc(C)[nH]c(=O)c1CNC(=O)c1c(C)n([C@H](C)C2CCC(N3CCC(OC4CC4)C3)CC2)c2ncccc12 (stereo partly drawn) [Example 111]", "IC50": "< 0.5 nM"}

Data request: Report IC50 for CSc1cc(C)[nH]c(=O)c1CNC(=O)c1c(C)n([C@H](C)C2CCC(N3CC(OC(F)F)C3)CC2)c2ncncc12 (stereo partly drawn) [Example 108] please.
Data returned: < 0.5 nM

Data request: Report IC50 for CSc1cc(C)[nH]c(=O)c1CNC(=O)c1c(C)n([C@H](C)C2OCC(N(C)C)CO2)c2ccccc12 (single isomer, unassigned) [7 (isomer 2)] please.
Data returned: < 0.5 nM
